Reference source: paper PMC6946680

test: ZT-1a pharmacokinetic properties in naive mice; format: in vivo, ICR mice; details: ICR, mouse, plasma, intravenous, 5 mg/kg; naive mice
parameter-measured: AUC

Q. Query: AUC; subject: Cc1cc(C(C#N)c2ccc(Cl)cc2)c(Cl)cc1NC(=O)c1cc(Cl)ccc1O (stereo not shown)
A. 2.34 µg·h/mL

###

test: ZT-1a pharmacokinetic properties in naive mice; type: in vivo, ICR mice; settings: mouse; plasma; IV 5 mg/kg; ICR mice; read-out: MRT(0-∞)
parameter-measured: MRT inf
Number first, unit second.

Q. Given Cc1cc(C(C#N)c2ccc(Cl)cc2)c(Cl)cc1NC(=O)c1cc(Cl)ccc1O (stereo not shown) , state its recorded MRT inf.
A. 27 min

###

experiment: ZT-1a pharmacokinetic properties in naive mice; type: in vivo, ICR mice; details: mouse; plasma; PO 10 mg/kg; ICR mice; read-out: MRT(0-∞)
parameter-measured: MRT inf (h)
Give the quantity in h, number only.

Q. Using the record for Cc1cc(C(C#N)c2ccc(Cl)cc2)c(Cl)cc1NC(=O)c1cc(Cl)ccc1O (stereo not shown) [ZT-1a] , report its MRT inf.
A. 3.3

###

experiment: ZT-1a pharmacokinetic properties in naive mice; assay type: in vivo, ICR mice; details: mouse; plasma; PO 10 mg/kg; ICR mice
parameter-measured: bioavailability (%)
Give just the numeric value; % need not be written.

Q. What does the data say about its bioavailability? Entry: Cc1cc(C(C#N)c2ccc(Cl)cc2)c(Cl)cc1NC(=O)c1cc(Cl)ccc1O (stereo not shown)
A. 2.2

###

assay: ZT-1a pharmacokinetic properties in naive mice; assay type: in vivo, ICR mice; settings: mouse; plasma; IV 5 mg/kg; ICR mice
parameter-measured: clearance

Q. Any idea what its clearance is? The molecule is Cc1cc(C(C#N)c2ccc(Cl)cc2)c(Cl)cc1NC(=O)c1cc(Cl)ccc1O (stereo not shown)
A. 35.5 mL/min/kg

###

test: ZT-1a pharmacokinetic properties in naive mice; type: in vivo, ICR mice; conditions: mouse; plasma; IV 5 mg/kg; ICR mice
parameter-measured: Cmax (ng/mL)
All answers are understood in ng/mL, so give the number only.

Q. Look at this compound and give its reported Cmax. Cc1cc(C(C#N)c2ccc(Cl)cc2)c(Cl)cc1NC(=O)c1cc(Cl)ccc1O (stereo not shown)
A. 6910

###

experiment: ZT-1a pharmacokinetic properties in naive mice; format: in vivo, ICR mice; conditions: ICR, mouse, plasma, iv, 5 mg/kg, IV 5 mg/kg, ICR mice, read-out: t1/2 (converted)
parameter-measured: half-life
Your answer should be a number followed by the unit of measure.

Q. Can you look up the measured half-life of Cc1cc(C(C#N)c2ccc(Cl)cc2)c(Cl)cc1NC(=O)c1cc(Cl)ccc1O (stereo not shown) for me?
A. 108 min

###

Listing of entries alongside the reported IC50.
test system: KCC3 pThr1048; assay: Immunoblot of KCC site 2 phosphorylation (KCC3 Thr1048) in HEK-293 cells transfected with FLAG-KCC3; assay type: cell-based, human; details: read-out: KCC3 pThr1048 (μM), 50% inhibition; Iso (isotonic); HEK-293; n = 3

| molecule | IC50 |
| --- | --- |
| Cc1cc(C(C#N)c2ccc(Cl)cc2)c(Cl)cc1NC(=O)c1cccc(O)c1O (stereo not drawn) | > 10 µM |
| COc1ccc(Cl)cc1C(=O)Nc1cc(Cl)c(C(C#N)c2ccc(Cl)cc2)cc1C (stereo not drawn) | > 10 µM |

Next:
Q. IC50 lookup needed for Cc1cc(C(C#N)c2ccc(Cl)cc2)c(Cl)cc1NC(=O)c1ccccc1[N+](=O)[O-] (stereo not drawn) , thanks.
A. > 10 µM
